Measured values drawn from ChEMBL document CHEMBL2321799 for this set.

The following molecules are shown together with reported IC50 values.
- Target Entity: Ephrin type-A receptor 2 (Homo sapiens, UniProt P29317)
- Sequence (P29317 whole entry): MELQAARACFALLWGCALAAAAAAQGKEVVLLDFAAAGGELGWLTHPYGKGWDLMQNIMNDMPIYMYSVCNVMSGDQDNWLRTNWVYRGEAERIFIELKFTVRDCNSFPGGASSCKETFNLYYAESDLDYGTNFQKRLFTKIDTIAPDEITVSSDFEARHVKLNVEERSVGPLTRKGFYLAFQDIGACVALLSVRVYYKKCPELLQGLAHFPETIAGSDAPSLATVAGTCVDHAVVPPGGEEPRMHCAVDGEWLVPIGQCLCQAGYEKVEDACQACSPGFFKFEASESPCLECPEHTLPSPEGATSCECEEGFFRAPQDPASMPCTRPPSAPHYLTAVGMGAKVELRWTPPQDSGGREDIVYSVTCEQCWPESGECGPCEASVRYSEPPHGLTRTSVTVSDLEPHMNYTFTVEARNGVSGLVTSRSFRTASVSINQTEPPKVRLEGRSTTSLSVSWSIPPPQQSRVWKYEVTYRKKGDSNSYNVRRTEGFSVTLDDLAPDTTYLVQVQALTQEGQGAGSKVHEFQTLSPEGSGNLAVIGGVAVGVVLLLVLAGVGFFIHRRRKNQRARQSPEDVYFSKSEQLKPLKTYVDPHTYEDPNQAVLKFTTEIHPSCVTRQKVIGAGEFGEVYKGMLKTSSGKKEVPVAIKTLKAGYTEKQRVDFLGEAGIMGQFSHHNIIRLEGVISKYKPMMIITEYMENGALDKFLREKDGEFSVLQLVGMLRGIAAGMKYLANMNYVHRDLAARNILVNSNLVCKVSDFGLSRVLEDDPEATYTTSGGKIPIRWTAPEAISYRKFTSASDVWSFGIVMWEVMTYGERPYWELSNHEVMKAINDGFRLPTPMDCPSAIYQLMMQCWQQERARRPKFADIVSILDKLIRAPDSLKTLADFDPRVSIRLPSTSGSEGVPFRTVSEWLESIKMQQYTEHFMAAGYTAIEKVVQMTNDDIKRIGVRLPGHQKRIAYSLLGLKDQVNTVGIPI
- Assay Procedure: Inhibition of ephrin-A1-Fc binding to EphA2-Fc receptor (unknown origin) after 1 hr by ELISA
Property Label: IC50

- Compound Structure String: "C[C@H](CCC(=O)N[C@H](CC(N)=O)C(=O)O)[C@H]1CC[C@H]2[C@@H]3CC[C@@H]4C[C@H](O)CC[C@]4(C)[C@H]3CC[C@]12C"
  Target Entity: "Ephrin type-A receptor 2 (Homo sapiens, UniProt P29317)"
  Reading: "> 316 µM"
- Compound Structure String: "C[C@H](CCC(=O)N[C@H](CC(=O)O)C(=O)O)[C@H]1CC[C@H]2[C@@H]3CC[C@@H]4C[C@H](O)CC[C@]4(C)[C@H]3CC[C@]12C"
  Target Entity: "Ephrin type-A receptor 2 (Homo sapiens, UniProt P29317)"
  Reading: "> 316 µM"
- Compound Structure String: "CC(=O)CNC(=O)CC[C@@H](C)[C@H]1CC[C@H]2[C@@H]3CC[C@@H]4C[C@H](O)CC[C@]4(C)[C@H]3CC[C@]12C"
  Target Entity: "Ephrin type-A receptor 2 (Homo sapiens, UniProt P29317)"
  Reading: "> 316 µM"
